Molecular target: T1, interferon-alpha receptor (type I interferon receptor comprising receptor subunits IFNAR-2 and IFNAR-1) (human, UniProt P17181 28-557; P48551 27-515)
T1 sequence (looked up) 1: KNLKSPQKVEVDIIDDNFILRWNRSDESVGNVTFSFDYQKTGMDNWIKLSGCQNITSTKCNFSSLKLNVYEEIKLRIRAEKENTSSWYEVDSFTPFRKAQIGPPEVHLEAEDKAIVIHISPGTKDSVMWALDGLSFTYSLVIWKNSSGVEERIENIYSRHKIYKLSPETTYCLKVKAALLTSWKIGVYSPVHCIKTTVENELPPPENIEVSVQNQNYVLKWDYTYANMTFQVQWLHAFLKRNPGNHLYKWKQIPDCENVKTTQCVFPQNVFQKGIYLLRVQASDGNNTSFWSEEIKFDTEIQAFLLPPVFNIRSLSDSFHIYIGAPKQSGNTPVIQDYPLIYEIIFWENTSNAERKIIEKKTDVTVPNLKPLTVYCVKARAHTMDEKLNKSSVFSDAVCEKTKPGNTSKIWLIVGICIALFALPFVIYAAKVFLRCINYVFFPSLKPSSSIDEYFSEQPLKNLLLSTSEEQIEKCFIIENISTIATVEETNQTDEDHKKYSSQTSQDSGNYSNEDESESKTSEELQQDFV
T1 sequence (looked up) 2: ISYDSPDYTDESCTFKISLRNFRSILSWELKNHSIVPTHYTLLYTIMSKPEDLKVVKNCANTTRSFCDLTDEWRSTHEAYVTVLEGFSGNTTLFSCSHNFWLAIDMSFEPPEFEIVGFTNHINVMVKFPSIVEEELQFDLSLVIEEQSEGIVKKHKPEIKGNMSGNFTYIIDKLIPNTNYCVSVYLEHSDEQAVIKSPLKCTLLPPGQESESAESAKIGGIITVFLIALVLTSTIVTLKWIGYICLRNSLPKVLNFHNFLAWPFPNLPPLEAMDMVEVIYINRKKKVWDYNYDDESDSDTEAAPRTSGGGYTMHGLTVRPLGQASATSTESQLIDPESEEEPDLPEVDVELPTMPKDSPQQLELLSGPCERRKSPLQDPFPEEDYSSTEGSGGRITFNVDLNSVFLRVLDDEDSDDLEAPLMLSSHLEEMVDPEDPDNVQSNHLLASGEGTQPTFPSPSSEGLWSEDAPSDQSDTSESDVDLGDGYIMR
Assay: cell-based or functional assay
observable: HuH7/EMCV Antiviral activity relative to huIFN-alpha 2b

14epi19 (ligand) CDLPQTHSLGHRRTMMLLAQMRRISLFSCLKDRHDFRFPQEEFDGNHAQKVQAIALFYEMMQQTFNLFSTKDSSAAWDETLLEKFYIELFQQMNDLEACVMQEVGVEETPLMNVDSILAVRKYFQRITLYLTEKKYSPCAWEVVRAEIMRSFSFSTNLQESLRSKE    > 8 fold
14epi18 (ligand) CDLPQTHSLGHRRTMMLLAQMRRISLFSCLKDRHDFRFPQEEFDGNHAQKVQAIFLFYEMMQQTFNLFSTKDSSAAWDETLLEKFYIELFQQMNDLEACVMQEVGVEETPLMNVDSILAVRKYFQRITLYLTEKKYSPCAWEVVRAEIMRSFSFSTNLQESLRSKE    > 8 fold

Next up:
Prompt: Record request: HuH7/EMCV Antiviral activity relative to huIFN-alpha 2b value, item 14epi15 (ligand) CDLPQTHSLGHRRTMMLLAQMRRISLFSCLKDRHDFRFPQEEFDGNHLQKVQAIFLFYEMMQQTFNLFSTKDSSAAWDETLLEKFYIELFQQMNDLEACVMQEVGVEETPLMNVDSILAVRKYFQRITLYLTEKKYSPCAWEVVRAEIMRSFSFSTNLQESLRSKE
Response: > 8 fold
